Data credit: patent US20030236190A1

- target_or_system: human insulin receptor (HIR) (human, UniProt P06213 28-1382, limits assumed)
- experiment_description: HIR Kd, Table 14; competition with 125I-insulin on solubilised HIR (method of Example 3, not restated for this table)
Flag rule - Kd less than 60 nM flags class 1; the remaining entries get class 0.

Sample answers from the record:
* RB622 (Recombinant F6-F1 dimer peptide with tags at both ends) peptide: MADYKDDDDKWLDQEWAWVQCEVYGRGCPSTPKPPTPPPLSADGSLDESFYDWFERQLGKKAAAGAPVPYPDPLEPRPG | class 1
* MGSLDESFYDWFERQLGEEEGGDHHHHHHPG (F1 monomer with a His tag) [RB569] | class 0
* RB508 (peptide) peptide: DYKDDDDKVRVDWLQRNANFYDWFVAELGGGSGGSGRVDWLQRNANFYDWFVAELGAAAGAPVPYPDPLEPRSA | class 0

Find out if reported Kd for MQNDDGSLDESFYDWFERQLGEEEGGDHHHHHHPG (F1 monomer with a His tag) [RB570] is less than 60 nM
class 1

Record RB509 (peptide) peptide: DYKDDDDKVRVDWLQRNANFYAWFVAELGGGSGGSGGSGGSGRVDWLQRNANFYDWFVAELGAAAGAPVPYPDPLEPRAA : is its Kd strictly below 60 nM?
class 1

Find out if reported Kd for RB625 (Recombinant F6-F1 dimer peptide with tags at both ends) peptide: MADYKDDDDKWLDQEWAWVQCEVYGRGCPSQPPPPDITTHRADPQGSLDESFYDWFERQLGKKAAAGAPVPYPDPLEPRPG is less than 60 nM
class 1

Quick check: Kd of RB537 (Recombinant F1-F6 (Site 1-Site 2) dimer peptide with tags at both ends) peptide: MADYKDDDDKGSLDESFYDWFERQLGKKGGSGGSWLDQEWAWVQCEVYGRGCPSAAAGAPVPYPDPLEPRPG under 60 nM?
class 1

I'd appreciate it if you could check whether RB521 (Recombinant F1-F1 dimer peptide with tags at both ends) peptide: MADYKDDDDKGSLDESFYDWFERQLGKKGGSGGSGSLDESFYDWFERQLGKKAAAGAPVPYPDPLEPRPG has Kd smaller than 60 nM.
class 1

Answer whether the binder RB437 (other, not shown: large carriers, MBP fusion, uncleaved) NNNNLGIEGRISEFIEGRAQPAMAFHENFYDWFVRQVSAAAGAPVPYPDPLEPRAA has Kd strictly less than 60 nM
class 0
